- TARGET OR SYSTEM: recombinant human MAO-B (monoamine oxidase-B) (Homo sapiens)
- Construct: purchased Sigma-Aldrich
- Sequence (P27338 whole entry): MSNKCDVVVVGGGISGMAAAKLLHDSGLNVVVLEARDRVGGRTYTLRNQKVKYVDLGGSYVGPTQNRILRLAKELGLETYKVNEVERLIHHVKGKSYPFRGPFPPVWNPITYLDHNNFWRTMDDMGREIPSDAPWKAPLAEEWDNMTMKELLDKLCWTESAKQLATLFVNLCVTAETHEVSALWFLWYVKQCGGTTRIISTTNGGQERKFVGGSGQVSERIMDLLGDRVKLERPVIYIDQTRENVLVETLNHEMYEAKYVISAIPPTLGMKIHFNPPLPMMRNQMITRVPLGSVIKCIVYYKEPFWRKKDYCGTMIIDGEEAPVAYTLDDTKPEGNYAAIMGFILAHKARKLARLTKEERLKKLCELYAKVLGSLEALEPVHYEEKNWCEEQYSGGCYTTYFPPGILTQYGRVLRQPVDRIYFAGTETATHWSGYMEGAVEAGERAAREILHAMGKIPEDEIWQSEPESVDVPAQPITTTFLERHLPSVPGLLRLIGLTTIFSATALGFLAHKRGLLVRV
- PROCEDURE DETAILS: Activity evaluation on recombinant human MAO-B (Amplex Red/HRP-coupled assay, 1 mM benzylamine substrate)
- Assay type: biochemical
- SETUP CONDITIONS: 1 mM benzylamine substrate, read-out: Inhibitory Activity (IC50, nM) MAO-B
Where a name gives a salt, the structure may show the parent alone.
REPORTED ENDPOINT: log10 IC50 (log10 of the value in nM)

| COMPOUND | REPORTED ENDPOINT | RECORDED RESULT |
| --- | --- | --- |
| Cc1cc(-c2ccc(N3CCCC3=O)cc2)cnc1-n1cnn(CC(CN)=C(F)F)c1=O [Example 230, Trifluoroacetate] | log10 IC50 | 4.89 |
| CN1C(=O)CCc2cc(-c3cccc(Cn4cnn(CC(CN)=C(F)F)c4=O)c3)ccc21 [Example 276, Trifluoroacetate] | log10 IC50 | 3.35 |
| Cc1cc(C#Cc2ccc(N(C)C)nc2)cnc1-n1cnn(CC(CN)=C(F)F)c1=O [Example 241, Trifluoroacetate] | log10 IC50 | 3.80 |
| NCC(Cn1ncn(Cc2cc(-c3cnn(C(F)F)c3)cs2)c1=O)=C(F)F [Example 194, Trifluoroacetate] | log10 IC50 | 3.96 |
| Cc1cc(-c2cccc(N3CCNCC3)c2)cnc1-n1cnn(CC(CN)=C(F)F)c1=O [Example 235, Ditrifluoroacetate] | log10 IC50 | 2.92 |
| Cc1cc(C#Cc2ccc3c(n2)OCCN3)cnc1-n1cnn(CC(CN)=C(F)F)c1=O [Example 246, ditrifluoroacetate] | log10 IC50 | 5.08 |
| CN1C(=O)CCc2cc(-c3ccc4cc(Cn5cnn(CC(CN)=C(F)F)c5=O)sc4c3)ccc21 [Example 203, Trifluoroacetate] | log10 IC50 | 2.89 |
| Cc1cc(-c2ccc3cn[nH]c3c2)cnc1-n1cnn(CC(CN)=C(F)F)c1=O [Example 233, Trifluoroacetate] | log10 IC50 | 2.30 |
| NCC(Cn1ncn(Cc2cc3cc(-c4ccc(N5CCNCC5)cc4)ccc3s2)c1=O)=C(F)F [Example 206, Ditrifluoroacetate] | log10 IC50 | 4.16 |
| CN(C)c1ccc(-c2ccc3cc(Cn4cnn(CC(CN)=C(F)F)c4=O)sc3c2)cn1 [Example 200, Trifluoroacetate] | log10 IC50 | 2.87 |
| Cc1cc(-c2cccc(-c3nc[nH]n3)c2)cnc1-n1cnn(CC(CN)=C(F)F)c1=O [Example 239, trifluoroacetate] | log10 IC50 | 4.15 |
| Cc1cc(-c2cnn(C(C)C)c2)cnc1-n1cnn(CC(CN)=C(F)F)c1=O [Example 252, Trifluoroacetate] | log10 IC50 | 4.54 |
| COc1cc(-c2cnc(-n3cnn(CC(CN)=C(F)F)c3=O)c(C)c2)cc(OC)c1OC [Example 224, Trifluoroacetate] | log10 IC50 | 3.28 |
| Cc1cc(-c2cccc(-c3cc[nH]n3)c2)cnc1-n1cnn(CC(CN)=C(F)F)c1=O [Example 232, Trifluoroacetate] | log10 IC50 | 3.04 |
| Cc1cc(C#Cc2cnc3c(c2)OCCN3)cnc1-n1cnn(CC(CN)=C(F)F)c1=O [Example 245, ditrifluoroacetate] | log10 IC50 | 4.18 |
| COc1ccc(-c2cnc(-n3cnn(CC(CN)=C(F)F)c3=O)c(C)c2)cn1 [Example 225, Trifluoroacetate] | log10 IC50 | 3.20 |
| Cc1cc(C#Cc2ccc3c(c2)NCCO3)cnc1-n1cnn(CC(CN)=C(F)F)c1=O [Example 243, Ditrifluoroacetate] | log10 IC50 | 3.34 |
| Cc1c(-c2ccc3c(c2)OCO3)cccc1-n1cnn(CC(CN)=C(F)F)c1=O [Example 257, Trifluoroacetate] | log10 IC50 | 5.00 |

Reference source for all entries: patent US11168073B2
